Source listed as paper PMC5656653.

- experiment.description: Biodistribution experiments in normal mice after i.v. injection
- Type: in vivo
- measurement.conditions: male, ddY, mouse, in vivo, iv, total radioactivity, mice, i.v., 60 min after injection, mean (SD); read-out: Biodistribution of radioactivity, Kidney
Where a SMILES comes first, the peptide text is derived from it. [ ]: non-standard residue; d: D form. The star is where a group is joined. DOTA = O=C(O)CN1CCN(CC(=O)O)CCN(CC(=O)*)CCN(CC(=O)O)CC1
test.readout: tissue uptake dose at 1 h (%ID)
Write the answer as a number in %ID, unit excluded.

IN: Look up and state reported tissue uptake dose at 1 h for O=C(O)C[C@@H](NC(=O)[C@@H](CC(=O)O)NC(=O)[C@@H](CC(=O)O)NC(=O)[C@@H](CC(=O)O)NC(=O)[C@@H](CC(=O)O)NC(=O)[C@@H](CC(=O)O)NC(=O)[C@@H](CC(=O)O)NC(=O)[C@@H](CC(=O)O)NC(=O)[C@@H](CC(=O)O)NC(=O)[C@@H](CC(=O)O)NC(=O)[C@@H](CC(=O)O)NC(=O)CN1CCN(CC(=O)O)CCN(CC(=O)O)CCN(CC(=O)O)CC1)C(=O)O [^67Ga-DOTA-(D-Asp)11, metal not drawn] ({DOTA}-[dD][dD][dD][dD][dD][dD][dD][dD][dD][dD][dD]-OH)
OUT: 2.92

====

Parameter tissue uptake dose at 10 min: see the listing below.
- experiment.description: Biodistribution experiments in normal mice after i.v. injection
- Type: in vivo
- measurement.conditions: male, ddY, mouse, in vivo, iv, total radioactivity, Biodistribution of radioactivity, Liver
Where a SMILES comes first, the peptide text is derived from it. [ ]: non-standard residue; d: D form. The star is where a group is joined. DOTA = O=C(O)CN1CCN(CC(=O)O)CCN(CC(=O)*)CCN(CC(=O)O)CC1
All answers are understood in %ID, so give the number only.

molecule: O=C(O)CC[C@@H](NC(=O)[C@@H](CCC(=O)O)NC(=O)[C@@H](CCC(=O)O)NC(=O)[C@@H](CCC(=O)O)NC(=O)[C@@H](CCC(=O)O)NC(=O)[C@@H](CCC(=O)O)NC(=O)[C@@H](CCC(=O)O)NC(=O)[C@@H](CCC(=O)O)NC(=O)[C@@H](CCC(=O)O)NC(=O)[C@@H](CCC(=O)O)NC(=O)[C@@H](CCC(=O)O)NC(=O)[C@@H](CCC(=O)O)NC(=O)[C@@H](CCC(=O)O)NC(=O)[C@@H](CCC(=O)O)NC(=O)CN1CCN(CC(=O)O)CCN(CC(=O)O)CCN(CC(=O)O)CC1)C(=O)O [^67Ga-DOTA-(D-Glu)14, metal not drawn]
obs.value: 0.46
--
molecule: O=C(O)CC[C@H](NC(=O)[C@H](CCC(=O)O)NC(=O)[C@H](CCC(=O)O)NC(=O)[C@H](CCC(=O)O)NC(=O)[C@H](CCC(=O)O)NC(=O)[C@H](CCC(=O)O)NC(=O)[C@H](CCC(=O)O)NC(=O)[C@H](CCC(=O)O)NC(=O)[C@H](CCC(=O)O)NC(=O)[C@H](CCC(=O)O)NC(=O)[C@H](CCC(=O)O)NC(=O)[C@H](CCC(=O)O)NC(=O)[C@H](CCC(=O)O)NC(=O)[C@H](CCC(=O)O)NC(=O)CN1CCN(CC(=O)O)CCN(CC(=O)O)CCN(CC(=O)O)CC1)C(=O)O [^67Ga-DOTA-(L-Glu)14, metal not drawn]
obs.value: 0.47
--
molecule: O=C(O)C[C@@H](NC(=O)[C@@H](CC(=O)O)NC(=O)CN1CCN(CC(=O)O)CCN(CC(=O)O)CCN(CC(=O)O)CC1)C(=O)O [^67Ga-DOTA-(D-Asp)2, metal not drawn] ({DOTA}-[dD]-[dD]-OH)
obs.value: 0.57

Continue with the molecule presented below.
IN: Let me know recorded tissue uptake dose at 10 min for O=C(O)C[C@@H](NC(=O)[C@@H](CC(=O)O)NC(=O)[C@@H](CC(=O)O)NC(=O)[C@@H](CC(=O)O)NC(=O)[C@@H](CC(=O)O)NC(=O)CN1CCN(CC(=O)O)CCN(CC(=O)O)CCN(CC(=O)O)CC1)C(=O)O [^67Ga-DOTA-(D-Asp)5, metal not drawn] ({DOTA}-[dD][dD][dD][dD][dD]-OH) , thanks.
OUT: 0.67

====

# tissue uptake dose at 10 min values compiled below
- experiment.description: Biodistribution experiments in normal mice after i.v. injection
- Type: in vivo
- measurement.conditions: male, ddY, mouse, in vivo, iv, total radioactivity, Biodistribution of radioactivity, Brain
Where a SMILES comes first, the peptide text is derived from it. [ ]: non-standard residue; d: D form. The star is where a group is joined. DOTA = O=C(O)CN1CCN(CC(=O)O)CCN(CC(=O)*)CCN(CC(=O)O)CC1
The figure you give is taken to be in %ID; do not add the unit.

Here is how some compounds turned out for tissue uptake dose at 10 min.
compound: O=C(O)C[C@@H](NC(=O)[C@@H](CC(=O)O)NC(=O)[C@@H](CC(=O)O)NC(=O)[C@@H](CC(=O)O)NC(=O)[C@@H](CC(=O)O)NC(=O)[C@@H](CC(=O)O)NC(=O)[C@@H](CC(=O)O)NC(=O)[C@@H](CC(=O)O)NC(=O)CN1CCN(CC(=O)O)CCN(CC(=O)O)CCN(CC(=O)O)CC1)C(=O)O [^67Ga-DOTA-(D-Asp)8, metal not drawn] ({DOTA}-[dD][dD][dD][dD][dD][dD][dD][dD]-OH)
unit.symbol: %ID
tissue uptake dose at 10 min: 0.05
--
compound: O=C(O)CC[C@@H](NC(=O)[C@@H](CCC(=O)O)NC(=O)[C@@H](CCC(=O)O)NC(=O)[C@@H](CCC(=O)O)NC(=O)[C@@H](CCC(=O)O)NC(=O)[C@@H](CCC(=O)O)NC(=O)[C@@H](CCC(=O)O)NC(=O)[C@@H](CCC(=O)O)NC(=O)[C@@H](CCC(=O)O)NC(=O)[C@@H](CCC(=O)O)NC(=O)[C@@H](CCC(=O)O)NC(=O)[C@@H](CCC(=O)O)NC(=O)[C@@H](CCC(=O)O)NC(=O)[C@@H](CCC(=O)O)NC(=O)CN1CCN(CC(=O)O)CCN(CC(=O)O)CCN(CC(=O)O)CC1)C(=O)O [^67Ga-DOTA-(D-Glu)14, metal not drawn]
unit.symbol: %ID
tissue uptake dose at 10 min: 0.05
--
compound: O=C(O)C[C@@H](NC(=O)[C@@H](CC(=O)O)NC(=O)CN1CCN(CC(=O)O)CCN(CC(=O)O)CCN(CC(=O)O)CC1)C(=O)O [^67Ga-DOTA-(D-Asp)2, metal not drawn] ({DOTA}-[dD]-[dD]-OH)
unit.symbol: %ID
tissue uptake dose at 10 min: 0.07
--
compound: O=C(O)CC[C@H](NC(=O)[C@H](CCC(=O)O)NC(=O)[C@H](CCC(=O)O)NC(=O)[C@H](CCC(=O)O)NC(=O)[C@H](CCC(=O)O)NC(=O)[C@H](CCC(=O)O)NC(=O)[C@H](CCC(=O)O)NC(=O)[C@H](CCC(=O)O)NC(=O)[C@H](CCC(=O)O)NC(=O)[C@H](CCC(=O)O)NC(=O)[C@H](CCC(=O)O)NC(=O)[C@H](CCC(=O)O)NC(=O)[C@H](CCC(=O)O)NC(=O)[C@H](CCC(=O)O)NC(=O)CN1CCN(CC(=O)O)CCN(CC(=O)O)CCN(CC(=O)O)CC1)C(=O)O [^67Ga-DOTA-(L-Glu)14, metal not drawn]
unit.symbol: %ID
tissue uptake dose at 10 min: 0.05

Okay, next one:
IN: Consider the compound O=C(O)C[C@@H](NC(=O)[C@@H](CC(=O)O)NC(=O)[C@@H](CC(=O)O)NC(=O)[C@@H](CC(=O)O)NC(=O)[C@@H](CC(=O)O)NC(=O)CN1CCN(CC(=O)O)CCN(CC(=O)O)CCN(CC(=O)O)CC1)C(=O)O [^67Ga-DOTA-(D-Asp)5, metal not drawn] ({DOTA}-[dD][dD][dD][dD][dD]-OH) and give its recorded tissue uptake dose at 10 min.
OUT: 0.1

====

- experiment.description: Biodistribution experiments in normal mice after i.v. injection
- Type: in vivo
- measurement.conditions: male, ddY, mouse, in vivo, iv, total radioactivity, Biodistribution of radioactivity, Small-intestine
Where a SMILES comes first, the peptide text is derived from it. [ ]: non-standard residue; d: D form. The star is where a group is joined. DOTA = O=C(O)CN1CCN(CC(=O)O)CCN(CC(=O)*)CCN(CC(=O)O)CC1
test.readout: tissue uptake dose at 3 h
Just so you know, I need the unit written after the number.

IN: Give the reported value of tissue uptake dose at 3 h for this record: O=C(O)CC[C@@H](NC(=O)[C@@H](CCC(=O)O)NC(=O)[C@@H](CCC(=O)O)NC(=O)[C@@H](CCC(=O)O)NC(=O)[C@@H](CCC(=O)O)NC(=O)[C@@H](CCC(=O)O)NC(=O)[C@@H](CCC(=O)O)NC(=O)[C@@H](CCC(=O)O)NC(=O)[C@@H](CCC(=O)O)NC(=O)[C@@H](CCC(=O)O)NC(=O)[C@@H](CCC(=O)O)NC(=O)[C@@H](CCC(=O)O)NC(=O)[C@@H](CCC(=O)O)NC(=O)[C@@H](CCC(=O)O)NC(=O)CN1CCN(CC(=O)O)CCN(CC(=O)O)CCN(CC(=O)O)CC1)C(=O)O [^67Ga-DOTA-(D-Glu)14, metal not drawn]
OUT: 0.15 %ID

IN: Respond only with tissue uptake dose at 3 h recorded for O=C(O)C[C@@H](NC(=O)[C@@H](CC(=O)O)NC(=O)[C@@H](CC(=O)O)NC(=O)[C@@H](CC(=O)O)NC(=O)[C@@H](CC(=O)O)NC(=O)CN1CCN(CC(=O)O)CCN(CC(=O)O)CCN(CC(=O)O)CC1)C(=O)O [^67Ga-DOTA-(D-Asp)5, metal not drawn] ({DOTA}-[dD][dD][dD][dD][dD]-OH)
OUT: 0.18 %ID

IN: Could you please provide reported tissue uptake dose at 3 h for O=C(O)C[C@@H](NC(=O)[C@@H](CC(=O)O)NC(=O)CN1CCN(CC(=O)O)CCN(CC(=O)O)CCN(CC(=O)O)CC1)C(=O)O [^67Ga-DOTA-(D-Asp)2, metal not drawn] ({DOTA}-[dD]-[dD]-OH) ? Thanks!
OUT: 0.08 %ID

IN: Give recorded tissue uptake dose at 3 h. O=C(O)CC[C@H](NC(=O)[C@H](CCC(=O)O)NC(=O)[C@H](CCC(=O)O)NC(=O)[C@H](CCC(=O)O)NC(=O)[C@H](CCC(=O)O)NC(=O)[C@H](CCC(=O)O)NC(=O)[C@H](CCC(=O)O)NC(=O)[C@H](CCC(=O)O)NC(=O)[C@H](CCC(=O)O)NC(=O)[C@H](CCC(=O)O)NC(=O)[C@H](CCC(=O)O)NC(=O)[C@H](CCC(=O)O)NC(=O)[C@H](CCC(=O)O)NC(=O)[C@H](CCC(=O)O)NC(=O)CN1CCN(CC(=O)O)CCN(CC(=O)O)CCN(CC(=O)O)CC1)C(=O)O [^67Ga-DOTA-(L-Glu)14, metal not drawn]
OUT: 0.15 %ID

IN: Consider the molecule O=C(O)C[C@@H](NC(=O)[C@@H](CC(=O)O)NC(=O)[C@@H](CC(=O)O)NC(=O)[C@@H](CC(=O)O)NC(=O)[C@@H](CC(=O)O)NC(=O)[C@@H](CC(=O)O)NC(=O)[C@@H](CC(=O)O)NC(=O)[C@@H](CC(=O)O)NC(=O)CN1CCN(CC(=O)O)CCN(CC(=O)O)CCN(CC(=O)O)CC1)C(=O)O [^67Ga-DOTA-(D-Asp)8, metal not drawn] ({DOTA}-[dD][dD][dD][dD][dD][dD][dD][dD]-OH) . State its measured tissue uptake dose at 3 h.
OUT: 0.1 %ID
